Target: Methyl-CpG-binding domain protein 4 (Homo sapiens);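 also: MBD4 activity read as fluorescence at 594 nm from cleavage and release of a quenched duplex DNA oligonucleotide, with APE1 coupled to incise the strand and raise turnover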
Conditions: Compound Concentration 10.0 uM, Hit No
Description: Inhibition of MBD4 by quantifying inhibition of MBD4-mediated cleavage and dissociation of quenched duplex DNA oligonucleotides, measured as fluorescence at 594 nm. To generate a functional strand incision and increase turn-over this assay is coupled to APE1.
Mark f for inhibition values under 30%, and t for everything at or above.

# Compound, System, Label
records = [
    ("COc1cc(Nc2ccnc3ccc(Br)cc23)cc(OC)c1OC", "Methyl-CpG-binding domain protein 4 (Homo sapiens)", "f"),
    ("Cc1nc(N2CC[C@@H](O)C2)ncc1-c1cc(C(F)(F)F)cc2[nH]ncc12", "Methyl-CpG-binding domain protein 4 (Homo sapiens)", "t"),
    ("COc1cc2nc(N(C)CCCNC(=O)C3CCCO3)nc(N)c2cc1OC (stereo not given)", "Methyl-CpG-binding domain protein 4 (Homo sapiens)", "f"),
    ("CCC[C@@H]1CNCc2c1[nH]c(=O)c(C#N)c2N1CCC2(CC1)CC2", "Methyl-CpG-binding domain protein 4 (Homo sapiens)", "t"),
    ("Cc1nc(C#Cc2cccnc2)cs1", "Methyl-CpG-binding domain protein 4 (Homo sapiens)", "f"),
    ("Cc1ccc(-c2ccc(F)cc2COc2ccc(CCC(=O)O)cc2)cc1", "Methyl-CpG-binding domain protein 4 (Homo sapiens)", "t"),
    ("Cc1cc(OC2CCS(=O)(=O)CC2)cc(C)c1-c1cccc(COc2ccc(C(=O)O)c(F)c2)c1", "Methyl-CpG-binding domain protein 4 (Homo sapiens)", "t"),
    ("COc1cccc(OC)c1-c1cc(C(=O)NC2(C(=O)O)C3CC4CC(C3)CC2C4)nn1-c1ccnc2cc(Cl)ccc12 (stereo not given)", "Methyl-CpG-binding domain protein 4 (Homo sapiens)", "t"),
    ("O=S(=O)(Nc1ccc(C(O)(C(F)(F)F)C(F)(F)F)cc1)c1cccs1", "Methyl-CpG-binding domain protein 4 (Homo sapiens)", "t"),
    ("CC(=O)N1CCC(c2ccc(C(=O)NC(=N)N)cc2C(F)(F)F)CC1", "Methyl-CpG-binding domain protein 4 (Homo sapiens)", "t"),
    ("CCNC(=O)c1cc2c(N3CCOC[C@@H]3C)ccnc2n1C", "Methyl-CpG-binding domain protein 4 (Homo sapiens)", "t"),
    ("Cc1nc(-c2ccc(C(F)(F)F)cc2)sc1COc1ccc([C@H](CC(=O)O)c2ccon2)cc1", "Methyl-CpG-binding domain protein 4 (Homo sapiens)", "f"),
    ("Cc1nc(-c2ccc(-c3ccc(C(=O)N4CCc5cc6c(cc54)C4(CCN(C)CC4)CO6)cc3)c(C)c2)no1", "Methyl-CpG-binding domain protein 4 (Homo sapiens)", "f"),
    ("CCN(c1ccccc1)c1cc(NC)[n+](C)c(C)n1", "Methyl-CpG-binding domain protein 4 (Homo sapiens)", "f"),
    ("C[C@@H](Cn1c(=O)[nH]/c(=N\\c2ccc(Oc3ccccn3)cc2)n(Cc2ccc(Cl)cc2)c1=O)C(=O)O", "Methyl-CpG-binding domain protein 4 (Homo sapiens)", "f"),
    ("Cc1cc(SCc2sc(-c3ccc(C(F)(F)F)cc3)nc2C)ccc1OCC(=O)O", "Methyl-CpG-binding domain protein 4 (Homo sapiens)", "t"),
    ("CC1(C)[C@H]2C[C@H](C/C=C\\CCCC(=O)O)[C@@H](NC(=O)c3csc4ccc(O)cc34)[C@@H]1C2", "Methyl-CpG-binding domain protein 4 (Homo sapiens)", "f"),
    ("COc1c(C(=O)/C=C/c2ccccc2)c(O)c(OC)c2occc12", "Methyl-CpG-binding domain protein 4 (Homo sapiens)", "f"),
    ("CC(C)(C[C@H]1CN(S(=O)(=O)c2cccc(C(F)(F)F)c2)c2cc(-c3cc(F)cc(OC(F)F)c3)ccc2O1)C(=O)O", "Methyl-CpG-binding domain protein 4 (Homo sapiens)", "t"),
    ("CCc1nc2c(o1)CC(c1ccc(C)cc1C)CC2=O (stereo not given)", "Methyl-CpG-binding domain protein 4 (Homo sapiens)", "f"),
    ("COc1ccc(-c2ccc3cc(C(=O)O)ccc3c2)cc1C12CC3CC(CC(C3)C1)C2", "Methyl-CpG-binding domain protein 4 (Homo sapiens)", "t"),
    ("Cc1ccccc1N1CCN(CCc2nnc3n2CCCC3)CC1", "Methyl-CpG-binding domain protein 4 (Homo sapiens)", "f"),
    ("O=C(N[C@H]1CCCCC/C=C\\C2C[C@@]2(C(=O)O)NC(=O)[C@@H]2C[C@@H](Oc3ccncc3)CN2C1=O)OC1CCCC1 (stereo not given in full)", "Methyl-CpG-binding domain protein 4 (Homo sapiens)", "t"),
    ("Cc1nnn(-c2ccc(-c3ccc(C4(C(=O)O)CC4)cc3)cc2)c1NC(=O)O[C@H](C)c1ccccc1", "Methyl-CpG-binding domain protein 4 (Homo sapiens)", "t"),
    ("CC(C)(C#Cc1ccc(NC(=O)COc2ccccc2C(=O)c2ccccc2)c(Cl)c1)C(=O)O", "Methyl-CpG-binding domain protein 4 (Homo sapiens)", "t"),
    ("CCn1c(CNC(=O)c2ncc(C)nc2N)[n+](CC)c2ccc(C(=O)N(C)CCN(C)C)cc21", "Methyl-CpG-binding domain protein 4 (Homo sapiens)", "t"),
    ("CC(C)(O)CNc1ncc(-c2ccnc(Nc3ccnc(Cl)c3)n2)c(CC2CC2)n1", "Methyl-CpG-binding domain protein 4 (Homo sapiens)", "f"),
    ("FC(F)(F)c1ccc(Nc2ncnc3cc(-c4ncccc4C(F)(F)F)ccc23)cc1", "Methyl-CpG-binding domain protein 4 (Homo sapiens)", "f"),
    ("c1nc(CC2CCNCC2)c[nH]1", "Methyl-CpG-binding domain protein 4 (Homo sapiens)", "f"),
    ("CCO[C@H](COc1ccc(C(F)(F)F)cc1)CSc1ccc(OCC(=O)O)c(C)c1", "Methyl-CpG-binding domain protein 4 (Homo sapiens)", "t"),
    ("COc1ccc(OC(=O)N(CC(=O)O)Cc2ccc(OCCc3nc(-c4ccccc4)oc3C)cc2)cc1", "Methyl-CpG-binding domain protein 4 (Homo sapiens)", "t"),
    ("CN1CCC(c2c[nH]c3ccc(O)cc23)CC1", "Methyl-CpG-binding domain protein 4 (Homo sapiens)", "f"),
    ("CCn1c(=O)c(C)cn(Cc2nnc(-c3ccc(F)c(OC)c3F)s2)c1=O", "Methyl-CpG-binding domain protein 4 (Homo sapiens)", "t"),
    ("O=C(Nc1cc(-c2ccccc2)nn1-c1ccccc1F)c1ccc([N+](=O)[O-])cc1", "Methyl-CpG-binding domain protein 4 (Homo sapiens)", "f"),
    ("N[C@@H](Cc1cc(I)c(Oc2ccc(O)c(I)c2)c(I)c1)C(=O)O", "Methyl-CpG-binding domain protein 4 (Homo sapiens)", "t"),
    ("CNC(=O)c1ccc(Nc2ncc(C(F)(F)F)c(NCc3nccnc3N(C)S(C)(=O)=O)n2)cc1", "Methyl-CpG-binding domain protein 4 (Homo sapiens)", "f"),
    ("Cc1nnc2ccc(-c3cccc(C(F)(F)F)c3)nn12", "Methyl-CpG-binding domain protein 4 (Homo sapiens)", "f"),
    ("CC(C)c1ccc(CC(=O)N2CCC[C@@H](c3cccc(OC(C)(C)C(=O)O)c3)C2)cc1", "Methyl-CpG-binding domain protein 4 (Homo sapiens)", "t"),
    ("Fc1ccc(-c2c3cccc(C(F)(F)F)c3nn2Cc2ccc(F)cc2Cl)cc1", "Methyl-CpG-binding domain protein 4 (Homo sapiens)", "t"),
]

====

Reported inhibition is given for each of the following molecules.
Target: Endonuclease 8-like 1 (Homo sapiens) (UniProt Q96FI4);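 also: fluorescence at 594 nm from quenched duplex DNA oligonucleotides released by NEIL1 cleavage and strand separation, reported as reduction of this enzyme activity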
Sequence (Q96FI4 whole entry): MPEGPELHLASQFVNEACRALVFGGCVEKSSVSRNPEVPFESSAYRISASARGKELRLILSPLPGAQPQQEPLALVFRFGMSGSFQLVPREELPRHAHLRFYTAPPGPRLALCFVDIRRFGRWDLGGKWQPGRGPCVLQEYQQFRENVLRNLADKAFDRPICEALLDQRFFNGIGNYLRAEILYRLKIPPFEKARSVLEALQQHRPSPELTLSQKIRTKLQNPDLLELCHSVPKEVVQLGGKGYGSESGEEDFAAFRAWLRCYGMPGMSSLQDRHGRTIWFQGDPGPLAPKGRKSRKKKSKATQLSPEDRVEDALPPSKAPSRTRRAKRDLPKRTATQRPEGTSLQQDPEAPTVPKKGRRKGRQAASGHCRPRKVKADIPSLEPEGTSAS
Conditions: Compound Concentration 10.0 uM, Hit No
Description: Inhibition of NEIL1 by quantifying inhibition of NEIL1-mediated cleavage and dissociation of quenched duplex DNA oligonucleotides, measured as fluorescence at 594 nm.
Outcome Measure: inhibition (%)

# Structure Smiles String, Unit Abbrev, Observed Measurement
data = [
    ("O=C1NCN(c2ccccc2)C12CCN(CCCOc1ccc(F)cc1)CC2", "%", -1.54),
    ("COc1ccc(Cl)cc1[C@]1(F)C(=O)Nc2cc(C(F)(F)F)ccc21", "%", 3.12),
    ("Cc1nnc2ccc(-c3cccc(C(F)(F)F)c3)nn12", "%", 1.34),
    ("COc1ccc(-n2nc3c4ccccc4[nH]cc-3c2=O)cc1", "%", 0.00926),
    ("O=C(O)c1ccc(S(=O)(=O)N(Cc2ccc(OC(F)(F)F)cc2)c2ncc(C(F)(F)F)cc2Cl)cc1", "%", 11.7),
]

====

Target: Endonuclease 8-like 2 (Homo sapiens);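 also: fluorescence at 594 nm reports NEIL2 cutting and release of a quenched double-stranded DNA oligo substrate, reduced signal read as inhibition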
Details: Compound Concentration 10.0 uM, Hit No
Description: Inhibition of NEIL2 by quantifying inhibition of NEIL2-mediated cleavage and dissociation of quenched duplex DNA oligonucleotides, measured as fluorescence at 594 nm.

# Compound, inhibition [%]
data = [
    ("Cc1cc([C@@H](C)Nc2cccc(-c3cc(C)c(C(=O)N[C@@H](C)C(=O)O)c(C)c3)c2)ccc1Cl", -3.73),
    ("O=C(O)C1CN(Cc2ccc(-c3nc4cc(Cc5ccccc5F)ccc4s3)c(F)c2)C1", -3.48),
    ("CC(C)(C)c1cc(C(C)(C)C)c(NC(=O)c2c[nH]c3ccccc3c2=O)cc1O", 5.25),
    ("O=C(Nc1ccccc1Br)N[C@@H]1CCN(c2ccc(C(F)(F)F)cn2)C1", 2.71),
    ("CCn1c(=O)c(C)cn(Cc2nnc(-c3ccc(F)c(OC)c3F)s2)c1=O", -5.85),
    ("Cc1cc(C)cc(-c2cnc3cc(Cl)c(-c4cccc(O)c4)cc3c2OCCCN)c1", 2.26),
    ("CC(=O)Nc1cccc2c1c(Sc1ccc(Cl)cc1)c(C)n2CC(=O)O", 5.76),
    ("CC(C)Oc1ccc(-c2nc(-c3cccc4c3CC[C@@H]4NCCO)no2)cc1C#N", 5.51),
    ("Cn1ncnc1COc1nn2c(-c3cc(F)ccc3F)nnc2cc1C(C)(C)C", -8.5),
    ("COc1cc2c(CCNC(C)=O)c[nH]c2cc1Cl", 0.0156),
    ("N[C@H](C(=O)O)c1ccc(C(=O)O)c(C(=O)O)c1", 5.76),
    ("COc1ccnc(N2CCC3(CCCN(Cc4c[nH]c5ccccc45)C3=O)CC2)n1", -0.983),
    ("Cn1cc(-n2cnc3c(NCc4nc5cc(Cl)c(Cl)cc5[nH]4)nc(N4CCOCC4)nc32)cn1", 1.04),
    ("CC[C@H](C)C(=O)O[C@H]1C[C@@H](C)C=C2C=C[C@H](C)[C@H](CC[C@@H]3C[C@@H](O)CC(=O)O3)[C@H]21", 4.61),
    ("Cc1onc(-c2ccccc2Cl)c1C(=O)N(C)c1ccc(Cl)cc1", 7),
    ("O=C(N[C@@H]1C2CCN(CC2)[C@H]1Cc1cccnc1)c1cc2ccccc2o1", 1.94),
    ("Cc1nc(C#Cc2cccnc2)cs1", -1.88),
    ("CN[C@@H](C)C/C=C/c1cncc(OC(C)C)c1", 6.78),
    ("NCCc1cn(S(=O)(=O)c2c(Cl)nc3sccn23)c2ccccc12", -1.62),
    ("c1ccc2c(c1)CCC[C@H]2Nc1nc2ccccc2[nH]1", 3.47),
    ("Cc1cccc([C@H]2CC[C@@H](N3CCN(c4cccnc4)CC3)CC2)c1 (mixture of isomers)", 9.59),
    ("CC1(C)CC(=O)c2c(SCCO)sc(-c3nccs3)c2C1", 1.94),
    ("CNC(=O)COc1cc2cc(Nc3nc(N4C[C@H](C)C[C@H](C)C4)ncc3Cl)ccc2n(C)c1=O", 4.1),
    ("Cc1c(NC(=O)c2cc(C(N)=O)nc3cc(F)ccc23)c(C(F)(F)F)nn1Cc1ccc(C#N)cc1", 8.19),
    ("CCNC(=O)c1cc2c(N3CCOCC3C)ccnc2[nH]1 (stereo not given)", -7.12),
    ("Cc1nnsc1C(=O)Nc1ccc(-n2nc(C(F)(F)F)cc2C(F)(F)F)cc1", 0.414),
    ("CCC(=O)N[C@H]1CC[C@@H](C(=O)N(C)c2ccc(-c3nc4ccccc4o3)cc2)C1", 8.7),
    ("Cc1cccc([C@H](C)c2c[nH]cn2)c1C", 7.25),
    ("COc1cc(Nc2nc(C)cc(-c3cnn4nc(OC)ccc34)n2)cc(C(F)(F)F)c1", 2.66),
    ("Cc1cccc(NC(=O)CN2CCC(c3ccccn3)CC2)c1", -0.35),
    ("CN(C(=O)/C=C/c1ccoc1)[C@@H]1CC[C@@]2(O)[C@H]3Cc4ccc(O)c5c4[C@@]2(CCN3CC2CC2)[C@H]1O5", 1.76),
    ("COc1cc(-c2cn[nH]c2)ccc1C(=O)Nc1ccc2c(c1)CCNCC2", 3.2),
    ("CC[C@H]1[C@@H](O)[C@@H]2[C@H](CC[C@]3(C)[C@@H]([C@H](C)CCC(=O)O)CC[C@@H]23)[C@@]2(C)CC[C@@H](O)C[C@@H]12", 1.55),
    ("CCCCCNC(=O)NS(=O)(=O)c1cc([N+](=O)[O-])ccc1NC1CCCCC1", 14.5),
    ("Nc1ncnc2c1ncn2[C@@H]1O[C@H](CO)[C@@H](O)[C@H]1O", 2.76),
    ("COc1ccc(CC(=O)NC(N/C(=N/C#N)Nc2cccc3ncccc23)C(C)(C)C)cc1OC (stereo not given)", 1.94),
    ("C[C@H]1CN(C[C@H](Cc2ccccc2)C(=O)NCC(=O)O)CC[C@@]1(C)c1cccc(O)c1", -9.01),
    ("COc1cc(Nc2ccnc3ccc(Br)cc23)cc(OC)c1OC", 1.58),
    ("CC1(C)Cc2c(CN3CCC4(CC3)CCN(C(=O)c3ccc(N)cn3)CC4)cccc2O1", -6.46),
    ("CCCCN(CC)c1nc(C)nc2c1c(C)cn2-c1c(C)cc(C)cc1C", 9),
]

Values from ChEMBL document CHEMBL5665443
